Here is a set of compounds with reported IC50 for UniProt Q06418, compiled from the literature.

Solved entries:
NCC1(c2cccc(-c3ncnc4[nH]ccc34)c2)Cc2ccccc2C1; 1000 to 3000 nM
C[C@@H](CC(F)(F)F)Nc1ncc2c(O[C@H]3C[C@H](CN4CCOCC4)C3)ncc([C@H]3CC[C@H](O)CC3)c2n1; ≤ 100 nM
COC1CCN(S(=O)(=O)c2ccc(-c3n[nH]c4ncc(-c5ccc6c(c5)CCC(C)(N5CCC[C@H]5C)CC6)cc34)cc2)CC1 (stereo partly shown); 100 to 1000 nM
CCOc1ncc([C@H]2CC[C@H](O)CC2)c2nc(N[C@@H](C)COC)ncc12; 100 to 1000 nM
CCCCC[C@H](C)Nc1ncc2c(C3=CC[C@@H](C(=O)N4CCOCC4)CC3)cc([C@H]3CC[C@H](O)CC3)n2n1; ≤ 100 nM
COC[C@H](C)Nc1ncc2c(-c3cnn(CC(C)(C)O)c3)cc([C@H]3CC[C@H](O)CC3)n2n1; ≤ 100 nM

Let us move to another entry and its IC50.
Q: Could you tell me which IC50 is on file for CN1C[C@H](Nc2ncc3c(OC4CCOCC4)ncc([C@H]4CC[C@H](O)CC4)c3n2)CC1=O ?
A: 1000 to 10000 nM
